System: HT29 colon
Assay: NCI-60 one-dose screen, 48 h
Settings: 10 µM unless noted
The panel holds about 83,000 compounds, 20% with a hit somewhere; the sample as a whole holds those more often. Activity calls are given as the source filed them. How the source made its calls: active means growth percent below 10; inactive means the rest.
Classes used: label 1 for active, label 0 for inactive

{"Compound": "CCOC(=O)/C(=C\\c1ccc(-c2ccccc2)cc1)C(C)=O", "Label": "label 0"}
{"Compound": "COc1cc(NS(C)(=O)=O)ccc1Nc1c2ccccc2nc2ccccc12", "Label": "label 0"}
{"Compound": "Nc1nc(N)c2c(ccc3c2ccn3Cc2cccc([N+](=O)[O-])c2)n1", "Label": "label 1"}
{"Compound": "O=C1c2ccccc2C(=O)c2sc(Nc3cccc(Cl)c3)nc21", "Label": "label 0"}
{"Compound": "COC(=O)[C@@]12OC[C@]34[C@H]([C@@H](O)[C@@H]1O)[C@@]1(C)[C@H](O)C(=O)C=C(C)[C@@H]1C[C@H]3OC(=O)C(OC(C)=O)[C@@H]24 (stereo not given in full)", "Label": "label 1"}
{"Compound": "Cc1ccc(N=C=C(c2ccccc2)c2ccccc2)cc1", "Label": "label 0"}
{"Compound": "CC(=O)ON=C1C=CC(=C(C#N)c2ccccc2)C=C1", "Label": "label 0"}
{"Compound": "O=C(CC1(O)C(=O)Nc2c(Cl)ccc(Cl)c21)c1ccc(Cl)cc1Cl (stereo not given)", "Label": "label 0"}
{"Compound": "N#CSCc1ccc(CSC#N)c(Cl)c1", "Label": "label 0"}
{"Compound": "C1=C(c2ccccc2)C(c2ccc(OCCN3CCCCC3)cc2)Oc2ccccc21 (stereo not given)", "Label": "label 1"}
